Assay: in vitro
Conditions: male, Gottingen, minipig, s9, pH 7.4, CLint +NADPH

{"columns": ["compound", "CLint scaled at 1 μM / mL/min/kg"],
 "data": [
  ["Nc1nc(OCc2ccccc2)c2[nH]cnc2n1 [O^6-benzylguanine]", 4.68]
]}

---

Assay: Incubations with rhesus monkey hepatic S9
Conditions: rhesus monkey hepatic S9; method A (eq. 4)
# Lookup of reported Fm,AO Method A (fraction metabolized by AO) keyed by entry
property label: Fm,AO Method A (fraction metabolized by AO)

{"columns": ["molecule", "readout number"],
 "data": [
  ["N=C(N)NC(=O)c1cnn(-c2cccc3ncccc23)c1C1CC1 [Zoniporide]", 0.77],
  ["CN1CCC(Nc2ncc3ncnc(Nc4ccc(F)c(Cl)c4)c3n2)CC1", 0.94],
  ["Cn1cc(-c2ccc3nnc(Sc4ccc5ncccc5c4)n3n2)cn1", 0.34],
  ["CCN(C(C)=O)c1cccc(-c2ccnc3c(C#N)cnn23)c1", 0.42]
]}

---

Assay: Incubations with minipig hepatic S9
Details: male, Gottingen, minipig, s9, pH 7.4, CLint (intrinsic clearance) in hepatic S9, minipig hepatic S9, in the presence of NADPH; Table 1, triplicate, 2–3 experiments

{"columns": ["compound", "CLint scaled at 1 μM"],
 "data": [
  ["CN1CCC(Nc2ncc3ncnc(Nc4ccc(F)c(Cl)c4)c3n2)CC1 [BIBX1382]", "134 mL/min/kg"],
  ["CCN(C(C)=O)c1cccc(-c2ccnc3c(C#N)cnn23)c1 [Zaleplon, zaleplon]", "5.55 mL/min/kg"]
]}

---

# Lookup of reported CLint scaled at 1 μM keyed by entry
Assay: Incubations with rat hepatic S9
Conditions: male, Sprague-Dawley, rat, hepatic S9, pH 7.4, CLint (intrinsic clearance) in hepatic S9, rat hepatic S9, in the presence of NADPH; Table 1, triplicate, 2–3 experiments

{"columns": ["compound", "unit name", "CLint scaled at 1 μM"],
 "data": [
  ["N=C(N)NC(=O)c1cnn(-c2cccc3ncccc23)c1C1CC1 [Zoniporide]", "mL/min/kg", 466],
  ["Cn1cc(-c2ccc3nnc(Sc4ccc5ncccc5c4)n3n2)cn1", "mL/min/kg", 35.3]
]}

---

Assay: Incubations with human hepatic S9
Details: both, human, hepatic S9, pH 7.4, CLint −NADPH, human hepatic S9 without NADPH
# Lookup of reported CLint scaled at 1 μM keyed by entry

{"columns": ["compound", "CLint scaled at 1 μM / mL/min/kg"],
 "data": [
  ["Cn1cc(-c2ccc3nnc(Sc4ccc5ncccc5c4)n3n2)cn1 [SGX523]", 4.51],
  ["N=C(N)NC(=O)c1cnn(-c2cccc3ncccc23)c1C1CC1 [Zoniporide]", 17.1]
]}

---

Assay: Incubations with human hepatic S9
Conditions: both, human, s9, pH 7.4, CLint (intrinsic clearance) in hepatic S9, human hepatic S9, in the presence of NADPH; Table 1, triplicate, 2–3 experiments
# Lookup of reported CLint scaled at 1 μM keyed by entry
property label: CLint scaled at 1 μM (mL/min/kg)

{"columns": ["compound", "unit name", "readout number"],
 "data": [
  ["CN1CCC(Nc2ncc3ncnc(Nc4ccc(F)c(Cl)c4)c3n2)CC1 [BIBX1382]", "mL/min/kg", 80.2],
  ["CCN(C(C)=O)c1cccc(-c2ccnc3c(C#N)cnn23)c1 [Zaleplon, zaleplon]", "mL/min/kg", 5.8]
]}
